assay: qHTS assay to identify small molecule agonists of the RXR signaling pathway - cell viability counter screen (AID 1159529); settings: RXR-alpha-bla HEK293T viability, CellTiter-Glo, 16 h; series mostly up to 76.8 µM; further: nearly all actives have a fitted effect of over 50% in size
Records with an inconclusive call do not appear. Calls of active or inactive are those of the source. The call rests on the fitted dose curve; in most records, active means well fitted cell-killing curve with a large enough effect in the repeat runs; inconclusive means weak or mixed curves, or effect the other way; inactive means no such curve, though single readings can be large or run the other way.
Outcomes: label 1 (active), label 0 (inactive)

{"columns": ["molecule", "label value"],
 "data": [
  ["CC(COc1ccc(C(C)(C)C)cc1)OS(=O)OCCCl (stereo not given)", "label 0"],
  ["CC(C)(CCl)c1ccccc1", "label 0"],
  ["CNC(=O)N(c1ccccc1)c1ccccc1", "label 0"],
  ["CCCCCCCC/C=C\\CCCCCCCC(=O)OC(CO)CO", "label 0"],
  ["CCCCCCCCCCCC[N+](C)(C)CC(=O)[O-]", "label 1"],
  ["C=CCOC(=O)/C=C\\C(=O)OCC=C", "label 0"],
  ["COCC(O)CO (stereo not given)", "label 0"],
  ["N#C[C@@H]1C[C@@H]2C[C@@H]2N1C(=O)[C@@H](N)C12CC3CC(CC(O)(C3)C1)C2", "label 0"],
  ["CCCOC(=O)c1ccc(C(=O)OCCC)nc1", "label 0"],
  ["CC1(C)O[C@@H]2C[C@H]3[C@@H]4CCC5=CC(=O)C=C[C@]5(C)[C@H]4[C@@H](O)C[C@]3(C)[C@]2(C(=O)CO)O1", "label 0"],
  ["C[N+]1(C)CCC(=C(c2ccccc2)c2ccccc2)CC1", "label 0"],
  ["COc1ccc(C(=O)c2cccc(O)c2)c(OC)c1", "label 0"],
  ["Nc1ccc(S(=O)(=O)O)c(N)c1", "label 0"],
  ["O=C(Nc1ccc([N+](=O)[O-])cc1)Nc1ccc([N+](=O)[O-])cc1", "label 1"],
  ["CC#N", "label 0"],
  ["CCCCCCCC/C=C\\CCCCCCCC(=O)OC", "label 0"],
  ["CC(=O)Oc1ccc2c(c1)CC[C@@H]1[C@@H]2CC[C@]2(C)[C@@H](O)CC[C@@H]12", "label 0"],
  ["COCCOC(=O)C1=C(C)NC(C)=C(C(=O)OC/C=C/c2ccccc2)C1c1cccc([N+](=O)[O-])c1 (stereo not given)", "label 0"],
  ["O=c1[nH]c2ccc(S(=O)CCN3CCC(Cc4ccc(F)cc4)CC3)cc2o1 (stereo not given)", "label 0"],
  ["CCCCCCCCCCOS(=O)(=O)O", "label 0"],
  ["O=C(CCC1CCN(Cc2ccccc2)CC1)c1ccc2c(c1)NCCCC2", "label 0"],
  ["Cc1ccc(Nc2nccc(N(C)c3ccc4c(C)n(C)nc4c3)n2)cc1S(N)(=O)=O", "label 0"],
  ["CC(CCO)CCc1ccccc1 (stereo not given)", "label 0"],
  ["CC1(C)C(=O)N(Br)C(=O)N1Cl", "label 0"],
  ["CC(CCc1ccc2c(c1)OCO2)NN (stereo not given)", "label 0"]
]}

FYI, the data here is from PubChem BioAssay (Tox21).
